The reader will find reported viability at 10 µM values listed item by item below.
- Test system: MUTU-1 Burkitt lymphoma cell line (EBV+)
- PROCEDURE DETAILS: cells
- MEASUREMENT PARAMETERS: Mutu-1, 24 h, read-out: MUTU-1 Cell Viability % 10 μM, 10 μM, 24 h

- MOLECULE: "CC(=CC12c3ccccc3C(c3ccccc31)c1ccccc12)[N+](=O)[O-] [Compound 20b]"
  TARGET ENTITY: "MUTU-1 Burkitt lymphoma cell line (EBV+)"
  UNITS LABEL: "%"
  viability at 10 µM: 102
- MOLECULE: "O=C1C2C3c4ccccc4C(/C=C/[N+](=O)[O-])(c4ccccc43)C2C(=O)N1c1ccc(Br)cc1 (stereo not shown) [Compound 16g]"
  TARGET ENTITY: "MUTU-1 Burkitt lymphoma cell line (EBV+)"
  UNITS LABEL: "%"
  viability at 10 µM: 1.1
- MOLECULE: "O=C1NC(=O)C2C1C1c3ccccc3C2(CC[N+](=O)[O-])c2ccccc21 (stereo not shown) [Compound 14b]"
  TARGET ENTITY: "MUTU-1 Burkitt lymphoma cell line (EBV+)"
  UNITS LABEL: "%"
  viability at 10 µM: 95
- MOLECULE: "CC(=O)O[C@H]1C(=O)[C@@]2(C)[C@H]([C@H](OC(=O)c3ccccc3)[C@]3(O)C[C@H](OC(=O)[C@H](O)[C@@H](NC(=O)c4ccccc4)c4ccccc4)C(C)=C1C3(C)C)[C@]1(OC(C)=O)CO[C@@H]1C[C@@H]2O [Taxol, taxol, reference compound]"
  TARGET ENTITY: "MUTU-1 Burkitt lymphoma cell line (EBV+)"
  UNITS LABEL: "%"
  viability at 10 µM: 10

---

The reader will find reported viability at 10 µM values listed item by item below.
- Test system: MUTU-1 Burkitt lymphoma cell line (EBV+)
- PROCEDURE DETAILS: cells
- MEASUREMENT PARAMETERS: Mutu-1, 24 h, read-out: MUTU-1 Cell Viability % 10 μM, 10 μM, 24 h

- COMPOUND: "O=C1NC(=O)C2C3c4ccccc4C(c4ccccc43)C12 (stereo not shown) [Compound 21b]"
  TARGET ENTITY: "MUTU-1 Burkitt lymphoma cell line (EBV+)"
  UNITS LABEL: "%"
  viability at 10 µM: 92.8
- COMPOUND: "O=[N+]([O-])/C=C/C12c3ccccc3C(c3ccccc31)c1ccccc12 [Compound 20a]"
  TARGET ENTITY: "MUTU-1 Burkitt lymphoma cell line (EBV+)"
  UNITS LABEL: "%"
  viability at 10 µM: 1.3
- COMPOUND: "O=C1OC(=O)C2C3c4ccccc4C(c4ccccc43)C12 (stereo not shown) [Compound 21a]"
  TARGET ENTITY: "MUTU-1 Burkitt lymphoma cell line (EBV+)"
  UNITS LABEL: "%"
  viability at 10 µM: 93.1
- COMPOUND: "O=C1OC(=O)C2C1C1(Cl)c3ccccc3C2(/C=C/[N+](=O)[O-])c2ccccc21 (stereo not shown) [Compound 13d]"
  TARGET ENTITY: "MUTU-1 Burkitt lymphoma cell line (EBV+)"
  UNITS LABEL: "%"
  viability at 10 µM: 43.5
- COMPOUND: "CC/C(=C\\C12c3ccccc3C(c3ccccc31)C1C(=O)N(Cc3cc(OC)c(OC)c(OC)c3)C(=O)C12)[N+](=O)[O-] (stereo not shown) [Compound 17m]"
  TARGET ENTITY: "MUTU-1 Burkitt lymphoma cell line (EBV+)"
  UNITS LABEL: "%"
  viability at 10 µM: 66.8
- COMPOUND: "O=[N+]([O-])CCC12c3ccccc3C(c3ccccc31)c1ccccc12 [Compound 20e]"
  TARGET ENTITY: "MUTU-1 Burkitt lymphoma cell line (EBV+)"
  UNITS LABEL: "%"
  viability at 10 µM: 111
- COMPOUND: "COc1ccc(N2C(=O)C3C4c5ccccc5C(/C=C/[N+](=O)[O-])(c5ccccc54)C3C2=O)cc1 (stereo not shown) [Compound 16c]"
  TARGET ENTITY: "MUTU-1 Burkitt lymphoma cell line (EBV+)"
  UNITS LABEL: "%"
  viability at 10 µM: 1.1
